Listed binders paired with reported CRF2R EC50
Target: T1, CRF2R
T1 sequence (Q13324 whole entry, species assumed, looked up): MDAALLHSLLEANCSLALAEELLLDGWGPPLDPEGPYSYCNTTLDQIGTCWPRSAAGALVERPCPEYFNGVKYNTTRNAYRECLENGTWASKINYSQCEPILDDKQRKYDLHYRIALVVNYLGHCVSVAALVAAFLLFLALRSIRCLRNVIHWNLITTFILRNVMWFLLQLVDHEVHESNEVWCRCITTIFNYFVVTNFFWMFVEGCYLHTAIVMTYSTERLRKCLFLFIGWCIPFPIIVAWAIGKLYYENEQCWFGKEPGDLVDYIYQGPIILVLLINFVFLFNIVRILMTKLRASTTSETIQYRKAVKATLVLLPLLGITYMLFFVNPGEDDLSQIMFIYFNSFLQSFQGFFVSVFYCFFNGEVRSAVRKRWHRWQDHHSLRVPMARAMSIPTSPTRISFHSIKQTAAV
Test: cell-based or functional assay
// note: answer is a bare numeric in nM

{"columns": ["binder", "CRF2R EC50 / nM"],
 "data": [
  ["ZGPPISIDLPFQLLRKVIEIEKQEKEKQQAANNARLLDTI (C-terminal amide) [SEQ ID NO 278]", 19.6]
]}

Qu. Sample ZGPPISIDVPFQLLRKVIEIEKQEKEKQQAANNARLLARI (C-terminal amide) [SEQ ID NO 383] — what was its CRF2R EC50?
Ans. 9.31

Qu. Sample ZGPPISIDLPIFLLRKMIEIEKQEKEKQQAANNALLLATI (C-terminal amide) [SEQ ID NO 298] — what was its CRF2R EC50?
Ans. 82

Qu. Sample ZGPPISIDLPFQLLRKVIEIEKQEKEKQQAANNAQLLAQI (not fully specified; C-terminal amide) [SEQ ID NO 276] — what was its CRF2R EC50?
Ans. 22.1

Data provenance: patent US20030148958A1
